For each of the compounds below, state its melting point.

Illustrative cases are given below, each with its answer.
CCCCc1ccc(C(=O)N[C@@H](CNC(=O)c2ccc(C)cc2)C(=O)N[C@@H](CC(C)C)B2O[C@@H]3C[C@@H]4C[C@@H](C4(C)C)[C@]3(C)O2)cc1 = 150 to 152 °C
CCCCc1ccc(C(=O)N[C@@H](CNC(=O)c2csc(-c3ccncc3)n2)C(=O)N[C@@H](CC(C)C)B(O)O)cc1 = 155 to 158 °C
CCCCc1ccc(C(=O)N[C@@H](CNC(=O)c2cccn2C)C(=O)N[C@@H](CC(C)C)B2O[C@@H]3C[C@@H]4C[C@@H](C4(C)C)[C@]3(C)O2)cc1 = 88 to 92 °C

Please state melting point for every compound in the list that follows.
1. CCCCc1ccc(C(=O)N[C@@H](CNC(=O)c2ccno2)C(=O)N[C@@H](CC(C)C)B2O[C@@H]3C[C@@H]4C[C@@H](C4(C)C)[C@]3(C)O2)cc1
2. CCCCc1ccc(C(=O)N[C@@H](CNS(C)(=O)=O)C(=O)N[C@@H](CC(C)C)B(O)O)cc1
3. CC(C)C[C@H](NC(=O)[C@H](CNC(=O)c1ccc(-c2ccccc2)cc1)NC(=O)c1ccc(Oc2ccccc2)cc1)B1O[C@@H]2C[C@@H]3C[C@@H](C3(C)C)[C@]2(C)O1
4. CC(C)C[C@H](NC(=O)[C@H](CNC(=O)c1ccc(-c2ccccc2)cc1)NC(=O)c1ccc(Oc2ccccc2)cc1)B(O)O
5. CC(C)C[C@H](NC(=O)[C@@H](NC(=O)c1ccc(-c2ccccc2)cc1)[C@@H](C)O)B(O)O

Output:
128 to 130 °C
120 to 123 °C
150 to 152 °C
158 to 160 °C
200 to 208 °C

---

assayed_target: 20S Human Erythrocyte Proteasome (HEP) (Homo sapiens, UniProt P20618+P28074)
Construct: 20S Human Erythrocyte Proteasome (HEP), purchased from Immatics Biotechnologies Inc
assay_procedure: Chymotrypsin-like activity of 20S Human Erythrocyte Proteasome (HEP), IC50 determination
measurement_context: assay of Example C, inhibition of HEP
value_kind: IC50

Illustrative cases are given below, each with its answer.
CC(=O)CCCC(=O)N[C@@H](CCCNC(=N)N[N+](=O)[O-])C(=O)N[C@@H](CC(C)C)B(O)O = < 100 nM
CCCCc1ccc(C(=O)N[C@@H](CNC(C)=O)C(=O)N[C@@H](CC(C)C)B(O)O)cc1 = < 10 nM
CC(C)C[C@H](NC(=O)[C@H](CCCNC(=N)N[N+](=O)[O-])NC(=O)C1CCN(C(=O)OC(C)(C)C)CC1)B(O)O (racemic) = < 10 nM
CC(C)C[C@H](NC(=O)[C@@H](NC(=O)c1cnccn1)[C@@H](C)O)B(O)O = < 100 nM
COc1ccc(C(=O)N[C@@H](CCCNC(=N)N[N+](=O)[O-])C(=O)N[C@@H](CC(C)C)B2O[C@@H]3C[C@@H]4C[C@@H](C4(C)C)[C@]3(C)O2)cc1F = < 10 nM

Next, consider the following compound.
Task: Reported IC50, compound `CC(C)C[C@H](NC(=O)[C@H](CCCNC(=N)N[N+](=O)[O-])NC(=O)CCCCc1cccs1)B1O[C@@H]2C[C@@H]3C[C@@H](C3(C)C)[C@]2(C)O1` : ____
Output: < 10 nM

---

For each of the compounds below, state its pEC50.
assayed_target: proteasome in Molt-4 cells (human leukemia) (Homo sapiens, UniProt P20618+P28074)
Sequence (P28074 60-263): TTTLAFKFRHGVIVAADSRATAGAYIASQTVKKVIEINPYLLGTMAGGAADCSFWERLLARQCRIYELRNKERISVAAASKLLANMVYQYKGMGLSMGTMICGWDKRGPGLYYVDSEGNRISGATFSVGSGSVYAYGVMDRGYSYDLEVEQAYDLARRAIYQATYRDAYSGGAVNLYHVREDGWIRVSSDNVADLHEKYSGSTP
Sequence (P20618 29-241): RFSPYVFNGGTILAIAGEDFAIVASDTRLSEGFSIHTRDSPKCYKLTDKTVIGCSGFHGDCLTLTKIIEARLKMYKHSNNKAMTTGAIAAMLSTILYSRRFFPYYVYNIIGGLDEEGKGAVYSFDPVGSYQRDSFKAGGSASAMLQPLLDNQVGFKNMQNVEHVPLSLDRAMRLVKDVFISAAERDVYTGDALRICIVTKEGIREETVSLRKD
Assay type: cell-based
measurement_context: assay of Example E, inhibition of MOLT4; read-out: MOLT4 (EC50)
pEC50: −log10 of the molar value.

Please state pEC50 for every compound in the list that follows.
1. CCCCCCCCCC(=O)N[C@@H](CNC(=O)c1cccs1)C(=O)N[C@@H](CC(C)C)B1O[C@@H]2C[C@@H]3C[C@@H](C3(C)C)[C@]2(C)O1
2. CCCCCCCCCC(=O)NCC(=O)N[C@@H](CC(C)C)B1O[C@@H]2C[C@@H]3C[C@@H](C3(C)C)[C@]2(C)O1
3. CC(C)C[C@H](NC(=O)[C@H](CCCNC(=N)N[N+](=O)[O-])NC(=O)CC1CC2CCC1C2)B(O)O (stereo partly shown)
4. COc1ccc(CCCC(=O)N[C@@H](CCCNC(=N)N[N+](=O)[O-])C(=O)N[C@@H](CC(C)C)B(O)O)cc1

Output:
1. > 6.70
2. > 6.70
3. < 5.00
4. 5.00 to 5.70

Please state pEC50 for every compound in the list that follows.
1. CC(C)C[C@H](NC(=O)[C@H](CCCNC(=N)N[N+](=O)[O-])NC(=O)CCc1ccccc1)B1O[C@@H]2C[C@@H]3C[C@@H](C3(C)C)[C@]2(C)O1
2. CC(C)C[C@H](NC(=O)[C@@H](NC(=O)CCCc1ccccc1)[C@@H](C)O)B(O)O
3. CCCCc1ccc(C(=O)N[C@@H](CNC(=O)c2csc(-c3ccncc3)n2)C(=O)N[C@@H](CC(C)C)B(O)O)cc1

Output:
1: 5.70 to 6.70; 2: > 6.70; 3: > 6.70

---

assayed_target: proteasome in Molt-4 cells (human leukemia) (Homo sapiens, UniProt P20618+P28074)
Assay type: cell-based
measurement_context: assay of Example E, inhibition of MOLT4; read-out: MOLT4 (EC50)
pEC50: −log10 of the molar value.
For each of the compounds below, state its pEC50.

Illustrative cases are given below, each with its answer.
CC(C)C[C@H](NC(=O)[C@H](CCCNC(=N)N[N+](=O)[O-])NC(=O)c1cnccn1)B(O)O = 5.00 to 5.70
CCCCCCCCCC(=O)N[C@@H](CNC(=O)c1cccs1)C(=O)N[C@@H](CC(C)C)B(O)O = > 6.70
CC(C)C[C@H](NC(=O)[C@H](CCCNC(=N)N[N+](=O)[O-])NC(=O)Cc1ccccc1)B(O)O = < 5.00
CC(C)C[C@H](NC(=O)[C@H](CCCNC(=N)N[N+](=O)[O-])NC(=O)c1ccc(C(C)(C)C)cc1)B(O)O = 5.00 to 5.70
CC(C)C[C@H](NC(=O)[C@H](CCCNC(=N)N[N+](=O)[O-])NC(=O)C(C)c1ccc(Cl)cc1)B(O)O (mixture of isomers) = 5.00 to 5.70

Please state pEC50 for every compound in the list that follows.
1. CCCCCC/C=C/C(=O)N[C@@H](CCCNC(=N)N[N+](=O)[O-])C(=O)N[C@@H](CC(C)C)B(O)O
2. CCCCc1ccc(C(=O)N[C@H](C(=O)N[C@@H](CC(C)C)B(O)O)[C@@H](C)O)nc1
3. CCCCCCCCCC(=O)N[C@@H](CNC(=O)Cc1ccc(OC)c(OC)c1)C(=O)N[C@@H](CC(C)C)B1O[C@@H]2C[C@@H]3C[C@@H](C3(C)C)[C@]2(C)O1
4. CC(=O)NCC(=O)N[C@@H](CCCNC(=N)N[N+](=O)[O-])C(=O)N[C@@H](CC(C)C)B1O[C@@H]2C[C@@H]3C[C@@H](C3(C)C)[C@]2(C)O1
5. CCCCC(CC)CCC(=O)N[C@@H](CCCNC(=N)N[N+](=O)[O-])C(=O)N[C@@H](CC(C)C)B(O)O (mixture of isomers)
6. CCCCCCCCCC(=O)N[C@@H](CNC(C)=O)C(=O)N[C@@H](CC(C)C)B(O)O
7. COc1ccc(CC(=O)N[C@@H](CCCNC(=N)N[N+](=O)[O-])C(=O)N[C@@H](CC(C)C)B(O)O)cc1
8. CCCCCCCCCCCNC(=O)N[C@@H](CCCNC(=N)N[N+](=O)[O-])C(=O)N[C@@H](CC(C)C)B1O[C@@H]2C[C@@H]3C[C@@H](C3(C)C)[C@]2(C)O1

Output:
5.00 to 5.70
> 6.70
> 6.70
< 5.00
5.70 to 6.70
> 6.70
< 5.00
> 6.70

Task: So what pEC50 did `CCCCCCCCCCCCC(=O)N[C@@H](CCCNC(=N)N[N+](=O)[O-])C(=O)N[C@@H](CC(C)C)B(O)O` get with proteasome in Molt-4 cells (human leukemia) (Homo sapiens, UniProt P20618+P28074)?
Output: > 6.70
